All values here come from ChEMBL document CHEMBL4359929.

# run_description: Stability in rat gastric fluid assessed as half life
# Type: ADME, tissue-based, Gastric juice
half-life for assorted compounds

Illustrative cases are given below, each with its answer.
>  <compound>
O=C(Oc1cccc(N2CCOCC2)c1)N1CCC(c2ccc(F)cc2)CC1

>  <half-life>
> 1 h

$$$$
>  <compound>
CC1CN(c2ccccc2)CCN1C(=O)Oc1cccc(N2CCS(=O)(=O)CC2)c1 (stereo not given)

>  <half-life>
> 1 h

$$$$

Consider now this further compound.
So for "CN1CCN(c2cccc(OC(=O)N3CCC(c4ccc(F)cc4)CC3)c2)CC1" , the logged half-life turned out to be > 1 h

* * *

# concentration at 0.25 h annotations
# run_description: Drug concentration in plasma (unknown origin) at 2 mg/kg, iv measured after 15 mins
# Assay type: ADME, organism-based
Answer in ng/mL, number only, no unit symbol.

Some molecules with recorded concentration at 0.25 h:
>  <item_smiles>
O=C(Oc1cccc(N2CCS(=O)(=O)CC2)c1)N1CCC(c2ccc(OCCF)cc2)CC1

>  <endpoint_unit>
ng/mL

>  <concentration at 0.25 h>
388

$$$$
>  <item_smiles>
O=C(Oc1cccc(N2CCOCC2)c1)N1CCC(c2ccc(F)cc2)CC1

>  <endpoint_unit>
ng/mL

>  <concentration at 0.25 h>
506

$$$$
>  <item_smiles>
CN(C)c1ccc(C2CCN(C(=O)Oc3cccc(N4CCS(=O)(=O)CC4)c3)CC2)cc1

>  <endpoint_unit>
ng/mL

>  <concentration at 0.25 h>
746

$$$$

Next molecule, please.
The recorded concentration at 0.25 h for "O=C(Oc1cccc(N2CCS(=O)(=O)CC2)c1)N1CCC(c2ccc(F)cc2)CC1" is 474
